Test system: 786-0
Assay: NCI tumour cell line growth inhibition, 48 h
Activity calls are given as the source filed them. No stated cut-off is given here; in the data, active = GI50 up to about 1.1 µM and inactive = higher.
observation type: GI50

[[record]]
compound = "COC(=O)/C=C(C)/C=C/c1c(C)c(C(C)=O)c(C)n1C"
target_desc = "786-0"
value_observed = "> 100 µM (inactive)"

[[record]]
compound = "NC(=O)c1ncn(Cc2ccccc2)c1CNC(N)=S"
target_desc = "786-0"
value_observed = "> 100 µM (inactive)"

[[record]]
compound = "C=CC/C=C/Cc1csc(C(C)(C)C(O)C/C=C/C(=C)CCNC(=O)OC)n1 (stereo unspecified)"
target_desc = "786-0"
value_observed = "> 100 µM (inactive)"

[[record]]
compound = "Cn1c(=O)c2/c(n(C)c1=O)=N\\C=c1\\c(=O)n(C)c(=O)n(C)\\c1=N\\C=2"
target_desc = "786-0"
value_observed = "> 100 µM (inactive)"

[[record]]
compound = "CN(C)c1nc(NN)c2c(-c3ccccc3)c(-c3ccccc3)oc2n1"
target_desc = "786-0"
value_observed = "> 100 µM (inactive)"

[[record]]
compound = "NC(CCCNc1ccc(O)cc1)C(=O)O (stereo unspecified)"
target_desc = "786-0"
value_observed = "17.2 µM (inactive)"


----------
System: UO-31
Experiment: NCI tumour cell line growth inhibition, 48 h
Active and inactive are the calls of the source. No stated cut-off is given here; in the data, active = GI50 up to about 1.1 µM and inactive = higher.
Classes used: True = active, False = inactive

[[record]]
molecule = "FC1=C2C3CCC(C3)C2C1(F)F (stereo unspecified)"
assigned_class = "False"

[[record]]
molecule = "CCN1C/C(=C\\c2ccc(Cl)cc2)C2=NN(c3ccccc3)C(c3ccc(Cl)cc3)C2C1 (stereo unspecified)"
assigned_class = "False"

[[record]]
molecule = "N#C[BH2-][n+]1cn(C2CC(OP(=O)(O)OCC3OC(n4ccc(N)nc4=O)CC3O)C(CO)O2)c2nc(N)[nH]c(=O)c21 (stereo unspecified)"
assigned_class = "False"

[[record]]
molecule = "CCNc1nc2c(=O)n(C)c(=O)n(C)c2s1"
assigned_class = "False"

[[record]]
molecule = "COc1cc2cnc(-c3ccccc3)cc2cc1OC"
assigned_class = "False"

[[record]]
molecule = "CC1=C(C(=O)NCC(C)O)CC(C(=O)NCC(C)O)=C(C)N1 (stereo unspecified)"
assigned_class = "False"

[[record]]
molecule = "C=C1C(=O)OC2CC3(C)C=CC(=O)C(=C)C3CC12 (stereo unspecified)"
assigned_class = "False"

[[record]]
molecule = "C/C(=C\\c1ccccn1)c1ccccn1"
assigned_class = "False"

[[record]]
molecule = "COc1ccccc1NC(=O)CC(=O)N/N=C/c1ccc(N(CCC#N)S(=O)(=O)c2ccccc2)cc1"
assigned_class = "False"

[[record]]
molecule = "CCN(C)c1nc(N(C)CC)c2nc(N(C)CC)nc(N(C)CC)c2n1"
assigned_class = "False"

[[record]]
molecule = "Cc1cn(C2CC(O)C(Cn3nncc3Cn3cnc4c(N)ncnc43)O2)c(=O)[nH]c1=O (stereo unspecified)"
assigned_class = "False"

[[record]]
molecule = "COc1ccc(-c2c(N)[n+]([O-])c3ccccc3[n+]2[O-])cc1OC"
assigned_class = "False"

[[record]]
molecule = "Cc1c(Cl)ccc2c1NC(=O)C2(O)CC(=O)c1ccc2ccccc2c1 (stereo unspecified)"
assigned_class = "False"

[[record]]
molecule = "C[C@@H](NC(=O)[C@@H]1C[C@]1(C)CO)c1cccc2ccccc12"
assigned_class = "False"

[[record]]
molecule = "COc1cc2c(c(OC)c1OC)-c1ccc(OC)c(=O)cc1[C@@H](NC(C)=O)CC2 [COLCHICINE]"
assigned_class = "True"

[[record]]
molecule = "CCOC(=O)C1CCCc2sc(N)c(C#N)c21 (stereo unspecified)"
assigned_class = "False"

[[record]]
molecule = "CC1OC(OC2C(OC(=O)[C@]34CCC(C)(C)C[C@H]3C3=CC[C@@H]5[C@@]6(C)CC[C@H](OC7OC(CO)C(O)C(O)C7OC7OC(CO)C(O)C(O)C7O)C(C)(C)[C@@H]6CC[C@@]5(C)[C@]3(C)CC4)OCC(O)C2O)C(O)C(OC2OCC(O)C(O)C2O)C1OC1OCC(O)C(OC2OCC(O)C(O)C2O)C1O (stereo partly specified)"
assigned_class = "False"

[[record]]
molecule = "O=c1/c(=C/c2ccc(-c3ccc(Cl)cc3Cl)o2)sc2n1[C@@H](c1ccc3c(c1)OCO3)C=C(c1cc(F)c(Cl)cc1Cl)N=2"
assigned_class = "False"

[[record]]
molecule = "CCc1nnc(CC)n1N1C(=O)CCC1=O"
assigned_class = "False"

[[record]]
molecule = "COC(=O)[C@]1(c2cc3ccccc3[nH]2)CC2CN(CC(=O)N(C)OC)C1CC2(OC)OC (stereo partly specified)"
assigned_class = "False"

[[record]]
molecule = "C/C(=N/NC(=S)Nc1ccccc1C)c1ccccn1"
assigned_class = "True"

[[record]]
molecule = "COC(=O)/C=C\\C(C#N)(C#N)/N=C/c1cc(Br)cs1"
assigned_class = "False"

[[record]]
molecule = "COc1cc(C2c3cc4c(cc3OC(N3CCCC3)C2C)OCO4)cc(OC)c1O (stereo unspecified)"
assigned_class = "False"

[[record]]
molecule = "COc1ccc(C2SCC(=O)N2c2ccc(-n3c(-c4ccccc4)nc4ccccc4c3=O)cc2)cc1OC (stereo unspecified)"
assigned_class = "False"

[[record]]
molecule = "Cc1cc(SCC(=O)c2ccccc2)nc2ccccc12"
assigned_class = "False"

[[record]]
molecule = "COC(=O)C1=Cc2c(cc(OC)c(OC)c2OC)[C@H](c2ccc(OC)c(OC)c2OC)C1C(=O)OC (stereo partly specified)"
assigned_class = "False"

[[record]]
molecule = "c1ccc2cc3c(cc2c1)nc1ccccn13"
assigned_class = "False"

[[record]]
molecule = "COc1ccc2[nH]c3c(C)c4c(c(C)c3c2c1)CN(C)C=C4"
assigned_class = "False"

[[record]]
molecule = "Oc1ccc2c(O)cc(-c3ccccc3)nc2c1"
assigned_class = "False"

[[record]]
molecule = "c1ccc(COC2C3COC(O3)C(OCc3ccccc3)C2OCc2ccccc2)cc1 (stereo unspecified)"
assigned_class = "False"

[[record]]
molecule = "CC(NC(CC12CC3CC(CC(C3)C1)C2)C(N)=O)c1ccccc1 (stereo unspecified)"
assigned_class = "False"

[[record]]
molecule = "COc1cc(CNC(=O)CCCCCCCC/C=C/Br)ccc1O"
assigned_class = "False"

[[record]]
molecule = "O=c1c2cn[nH]c2nc2scc(-c3ccc(Cl)cc3)n12"
assigned_class = "False"

[[record]]
molecule = "Cn1c(=O)c2/c(n(C)c1=O)=N\\C=c1\\c(=O)n(C)c(=O)n(C)\\c1=N\\C=2"
assigned_class = "False"

[[record]]
molecule = "O=[N+]([O-])c1ccc(Cl)cc1N/N=C/c1cccs1"
assigned_class = "False"

[[record]]
molecule = "Cc1ccnc2nc(-c3ccc(F)cc3)cc(O)c12"
assigned_class = "False"

[[record]]
molecule = "CSC(=S)NNC(=O)c1ccncc1"
assigned_class = "False"

[[record]]
molecule = "CN(C)CC1CCCCCCCCCC(CN(C)C)C1=O (stereo unspecified)"
assigned_class = "False"

[[record]]
molecule = "CC12CCCCC1=[N+]([O-])C(C)(C)N2O (stereo unspecified)"
assigned_class = "False"

[[record]]
molecule = "COc1cccc2c1C(=O)c1c(O)c3c(c(O)c1C2=O)C[C@](O)(C(=O)CO)CC3OC1CC(N)C(OC2CCCCO2)C(C)O1 (stereo partly specified)"
assigned_class = "False"

[[record]]
molecule = "COC(=O)c1ccc(/C=C/c2cc(O)ccc2O)cc1"
assigned_class = "False"

